PROCEDURE_DETAILS: qHTS for Inhibitors of Inflammasome Signaling: IL-1-beta AlphaLISA Primary Screen; note: % is set by controls: 0 for no effect and ±100 for the full control effect
ASSAY_CONDITIONS: THP-1 LPS/ATP IL-1B secretion, 16 h; at 57.5 µM, stronger effect = lower value
Hit rate of the full screen: of about 360,000 compounds, about 17,000 (4.7%) were called active. Roughly 5% stayed inconclusive and do not appear here. The list comes from a sample in which actives are over-represented; it also holds close analogues and randomly drawn compounds.
For each entry below, report its activity change value.
Field: numeric (%). Do not append units.

Q: What value of activity change has been reported for the following molecule? Cn1cc(CN2CCC(C(O)CCc3ccccc3)CC2)c(-c2ccccc2F)n1 (stereo not given)
Result: -20.8

Q: What value of activity change has been reported for the following molecule? Cc1cccc(-n2cc(CN3CCN(C(=O)c4ncn[nH]4)CC3)c(-c3cccc(F)c3)n2)c1
Result: 0.119

Q: What value of activity change has been reported for the following molecule? COc1ccc(-n2cc(CNC3CCOCC3)c(-c3cccc(F)c3)n2)cc1
Result: -66.6

Q: What value of activity change has been reported for the following molecule? O=C(Nc1ccc2c(c1)OCCO2)C(C1CC1)N1CCC(Cc2ccccc2)CC1 (stereo not given)
Result: 11.6

Q: What value of activity change has been reported for the following molecule? COc1ccc(C(C)(C)C)cc1NC(=O)CN(C)C1=NS(=O)(=O)c2ccccc21
Result: 10.7
